# Tested on: K562
# assay_summary: NCI tumour cell line growth inhibition, 48 h
Active and inactive are the calls of the source. Cut-off read from the data, not from the text of the source: active = GI50 up to about 1.1 µM and inactive = higher.
Allowed answers: 1 (yes) = active, 0 (no) = inactive

N#Cc1cc(N(CCCl)CCCl)c([N+](=O)[O-])cc1[N+](=O)[O-] :: 0 (no)
CCOC(=O)c1nc2ccc(C(F)(F)F)cc2nc1Oc1ccc(C(=O)OC)cc1 :: 0 (no)
CC1(C)OC2C(O)CN3CCS[C@H]3C2O1 (some centres undefined) :: 0 (no)

Ask: Recorded test call requested for "NC(=O)/C=C/c1c[nH]c2nccnc12"
Reply: 1 (yes)

----------
# Test system: IGROV-1
# assay_summary: NCI tumour cell line growth inhibition, 48 h
Active and inactive are the calls of the source. No stated cut-off is given here; in the data, active = GI50 up to about 1.1 µM and inactive = higher. Where a SMILES comes first, the peptide text is derived from it. [ ]: non-standard residue; d: D form. The star is where a group is joined. ξ: configuration not given here. X4 = COc1ccc(C(N*)c2ccc(OC)cc2)cc1; NMeF = CN[C@@H](Cc1ccccc1)C(=O)O; NMeD = CN[C@@H](CC(=O)O)C(=O)O; NMeV = CN[C@H](C(=O)O)C(C)C; ξNMeV = CNC(C(=O)O)C(C)C; Boc = CC(C)(C)OC(=O)*; ξNMeA = CNC(C)C(=O)O; ξV = CC(C)C(N)C(=O)O
Allowed answers: Y = active, N = inactive

Ask: Recorded test call requested for COc1ccc(C(NC(=O)C[C@@H](C(=O)N(C)C(C)C(=O)O)N(C)C(=O)[C@@H]2CCCN2C(=O)[C@H](C(C)C)N(C)C(=O)C(C(C)C)N(C)C(=O)[C@H](Cc2ccccc2)N(C)C(=O)C(NC(=O)OC(C)(C)C)C(C)C)c2ccc(OC)cc2)cc1 (stereo not given in full) (Boc-[ξV][NMeF][ξNMeV][NMeV]P[NMeD](X4)[ξNMeA]-OH)
Reply: N

Ask: Recorded test call requested for "COc1cccc(-c2nc3c(C(=O)NCCN(C)C)cccc3[nH]2)c1"
Reply: N
